ASSAY OVERVIEW: Liver Microsome Stability Assay (human)
RECORDED CONDITIONS: human liver microsomes, with NADPH, 1.0 uM compound
Liver Microsome Stability (Multiple Species): Human - % Remaining after 30 min w/NADPH for assorted compounds
EXPERIMENTAL ENDPOINT: Liver Microsome Stability (Multiple Species): Human - % Remaining after 30 min w/NADPH (%)

COMPOUND	SCALE UNIT	OBSERVED RESULT
O=C(Nc1nc([C@H]2CCCN2c2ccc(O[C@H]3CCCNC3)cc2)cs1)c1cccn1Cc1ccnc(F)c1	%	57.6
COc1ccc(O[C@@H]2CCC[C@H](c3csc(NC(=O)c4cccn4Cc4ccncc4)n3)C2)nc1	%	0.34
CC(CC#N)n1cnc(/C=C/c2csc(NC(=O)c3cccn3Cc3ccnc(F)c3)n2)c1 (stereo not shown)	%	0.38
CC(=O)Nc1ccc(N2CCC[C@@H]2c2csc(NC(=O)c3cccn3CC3CCOCC3)n2)cc1	%	23.7

###

Tested on: TNFα-FL/Gaussia Luciferase
ASSAY OVERVIEW: Dox Induced TNFα-FL-Gluc Assay
Format: cell-based
RECORDED CONDITIONS: ratio of TNFaFLGluc IC50 to PD1ssGluc IC50
24 hr Dox Inducible TNFaFLGluc 293FRT/TO: TNF/PD1 for assorted molecules
EXPERIMENTAL ENDPOINT: 24 hr Dox Inducible TNFaFLGluc 293FRT/TO: TNF/PD1

COMPOUND STRUCTURE	QUALIFIER	OBSERVED RESULT
CCc1ccc(N2CCC[C@@H]2c2csc(NC(=O)c3cccn3Cc3ccnc(F)c3)n2)cc1	=	10.4
CC(C)(C)c1nc(/C=C/c2csc(NC(=O)c3cccn3Cc3ccncc3)n2)co1	=	21.7
Cc1cc(C(=O)Nc2nc([C@H]3CCCN3c3ccccc3)cs2)n(Cc2ccncc2)c1	=	14.1
CCn1cnc(/C=C/c2csc(NC(=O)c3cccn3Cc3ccnc(F)c3)n2)c1	>	208
CC(=O)NCc1ccc(N2CCC[C@@H]2c2csc(NC(=O)c3cccn3Cc3ccncc3)n2)cc1	=	13.4
CC(C)n1cnc(/C=C/c2csc(NC(=O)c3cccn3Cc3ccncc3)n2)c1	>	366
O=C(Nc1nc(/C=C/c2cn(C3CCCCC3)cn2)cs1)c1cccn1Cc1ccnc(F)c1	=	262
CC(=O)N1CCC(c2ccc(N3CCC[C@@H]3c3csc(NC(=O)c4cccn4Cc4ccncc4)n3)cc2)CC1	=	21.8
Cc1cccc2nc(/C=C/c3csc(NC(=O)c4cccn4Cc4ccncc4)n3)cn12	>	50.9
CC(=O)Nc1ccc(N2CCC[C@@H]2c2csc(NC(=O)c3cccn3Cc3ccncc3)n2)cc1	=	17.3
O=C(Nc1nc(/C=C/c2c[nH]cn2)cs1)c1cccn1Cc1ccncc1	>	3.74
O=C(Nc1nc(/C=C/c2ccncn2)cs1)c1cccn1Cc1ccncc1	>	7.44
O=C(Nc1nc([C@H]2CCCN2c2ccc(OC3CCN(C(=O)C(F)F)CC3)cc2)cs1)c1cccn1Cc1ccnc(F)c1	=	10
COC(=O)Nc1ccc(N2CCC[C@@H]2c2csc(NC(=O)c3cccn3Cc3ccnc(F)c3)n2)nc1	=	26.7
CC(=O)N1CCC(Oc2c(F)cc(N3CCC[C@@H]3c3csc(NC(=O)c4cccn4Cc4ccnc(F)c4)n3)cc2F)CC1	=	7.32
O=C(Nc1nc(/C=C/c2ccon2)cs1)c1cccn1Cc1ccncc1	>	11.6
